target.entity: Cytochrome P450 3A4 (Homo sapiens) (UniProt P08684)
Sequence (P08684 whole entry, looked up): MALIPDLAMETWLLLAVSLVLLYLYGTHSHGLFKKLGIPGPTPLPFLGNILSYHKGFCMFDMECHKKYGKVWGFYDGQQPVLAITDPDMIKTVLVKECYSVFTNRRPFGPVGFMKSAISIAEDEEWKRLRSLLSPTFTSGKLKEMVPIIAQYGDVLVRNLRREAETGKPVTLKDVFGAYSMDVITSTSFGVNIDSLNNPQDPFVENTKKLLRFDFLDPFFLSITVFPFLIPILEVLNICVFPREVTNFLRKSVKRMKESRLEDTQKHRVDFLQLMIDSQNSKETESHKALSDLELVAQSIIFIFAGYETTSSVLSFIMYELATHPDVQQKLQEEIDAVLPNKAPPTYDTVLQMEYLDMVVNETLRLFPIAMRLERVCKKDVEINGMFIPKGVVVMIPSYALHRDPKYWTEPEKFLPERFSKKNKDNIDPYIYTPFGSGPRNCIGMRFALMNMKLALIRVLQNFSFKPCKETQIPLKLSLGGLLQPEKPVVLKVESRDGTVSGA
measurement.protocol: Cytochrome panel assay with activity outcomes
cond: recombinant CYP, pro-luciferin dealkylation, luminescence, p450-cyp3a4; series mostly up to 57.1 µM
The campaign covered roughly 16,000 compounds. About 5,100 (32%) were called active. Inconclusive results (about 25%) are left out. Calls come from the whole dose curve; as a rule, active = well fitted curve in the direction sought with a large enough effect; inconclusive = small, poorly fitted or top-dose-only effect, or effect the other way; inactive = no such curve, though single readings can be large or run the other way. The list shows a part of the results.
API: response.call in active, inactive

Worked cases, answers included:
O=C(c1cccc(F)c1)N1CCC2(CCCN(C(c3ccccc3)c3ccccc3)C2)CC1    inactive
CCCn1c(/C=C/c2ccccc2)nc2ccccc21    active
CC(=O)N1CCC2(CC1)CCN(c1cccc(-c3ccccc3)c1)CC2    inactive
Clc1ccc(CSc2nnc(-c3sccc3-n3cccc3)o2)cc1    active
O=C(c1cccc(F)c1)N1CCC[C@@]2(CCN(c3ccccc3)C2)C1    active

Prompt line: What did this assay record as the result for Cc1nc2ccccc2n1CC(=O)N/N=C\C=C\c1ccccc1 ?
Response line: inactive

Prompt line: What did this assay record as the result for CC[C@H](CO)NCCN[C@@H](CC)CO ?
Response line: inactive

Prompt line: What did this assay record as the result for Cc1cccc(-c2nnc(SCc3ccccc3)o2)c1 ?
Response line: inactive

Prompt line: What did this assay record as the result for O=C(c1cccc(F)c1)N1CCC[C@@]2(CCN(C(c3ccccc3)c3ccccc3)C2)C1 ?
Response line: active

Prompt line: What did this assay record as the result for Clc1cccc(CSc2nnc(-c3sccc3-n3cccc3)o2)c1 ?
Response line: active

Prompt line: What did this assay record as the result for c1ccc(CSc2nnc(-c3sccc3-n3cccc3)o2)cc1 ?
Response line: active

Prompt line: What did this assay record as the result for Clc1ccc(CSc2nnc(-c3cccnc3)o2)cc1 ?
Response line: active
